System: β-galactosidase in CMV-LacZ C2C12 myoblasts
METHOD: CMV-LacZ secondary screen in C2C12 myoblasts (β-Gal stabilizing assay)
Type: cell-based, mouse
RECORDED_CONDITIONS: 5 uM; CMV-LacZ C2C12 myoblasts
With a cut-off of 1, any CMV-LACZ in Myoblasts (β-galactosidase activity relative to DMSO) strictly below it is called Y; any CMV-LACZ in Myoblasts (β-galactosidase activity relative to DMSO) meeting it or above is called N.

Bench note: check whether O=C(NCCc1ccccc1)C1CCC(=O)N1C1CCCC1 (stereo not drawn) shows CMV-LACZ in Myoblasts (β-galactosidase activity relative to DMSO) below 1
Y

---

Test system: α7 integrin (LacZ reporter in α7+/LacZ myotubes)
METHOD: Myotube α7 integrin FDG assay (Burkin assay in myotubes, 96-well)
Assay type: cell-based, mouse
RECORDED_CONDITIONS: 0.5 uM; SU9516 analogs, 96-well, N=3-6
This listing pairs compounds with measured Burkin Assay in Myotubes, value relative to DMSO.

Examples from the recorded data:
- COMPOUND: "Cc1[nH]c(/C=C2\\C(=O)Nc3ccc(S(=O)(=O)Cc4c(Cl)cccc4Cl)cc32)c(C)c1C(=O)C1CCCN1CN1CCCC1 (stereo not drawn) [NCGC00242500-01]"
  VALUE_MEASURED: 0.9974
- COMPOUND: "CCN(CC)CCNC(=O)c1c(C)[nH]c(/C=C2\\C(=O)Nc3ccc(F)cc32)c1C [NCGC00164631-04]"
  VALUE_MEASURED: 0.9761

Please look at the following compound next.
Form field: reported Burkin Assay in Myotubes, value relative to DMSO of COc1ccc2c(c1)C(=C(C#N)C#N)C(=O)N2CCc1ccccc1 [MLS000763074-01]
1.0274

---

Tested on: β-galactosidase in CMV-LacZ C2C12 myotubes
METHOD: CMV-LacZ secondary screen in C2C12 myotubes (β-Gal stabilizing assay)
Format: cell-based, mouse
RECORDED_CONDITIONS: 20 uM; C2C12 CMV-LacZ myotubes; fold relative to DMSO
EXPERIMENTAL_ENDPOINT: CMV-LACZ in Myotubes, signal relative to DMSO
Lab note: jot the number down without any unit.

- MOLECULE: "Cc1ccc(C(=O)C(C)OC(=O)CNC(=O)c2ccc(Br)o2)cc1 (centres unmarked)"
  TARGET_DESC: "β-galactosidase in CMV-LacZ C2C12 myotubes"
  VALUE_MEASURED: 0.9095
- MOLECULE: "CC(=O)Nc1c(-c2ccc(Cl)cc2)c(=O)c2ccccc2n1C"
  TARGET_DESC: "β-galactosidase in CMV-LacZ C2C12 myotubes"
  VALUE_MEASURED: 0.9167
- MOLECULE: "O=C(COc1ccc(Cl)cc1)N1CCN(C2CCCC2)CC1.O=C(O)C(=O)O"
  TARGET_DESC: "β-galactosidase in CMV-LacZ C2C12 myotubes"
  VALUE_MEASURED: 1.2212
- MOLECULE: "CC(=O)Nc1ccc(N(C(=O)c2cnccn2)C(C(=O)NC2CCCCC2)c2ccc(F)cc2)cc1 (centres unmarked)"
  TARGET_DESC: "β-galactosidase in CMV-LacZ C2C12 myotubes"
  VALUE_MEASURED: 0.8655
- MOLECULE: "O=[N+]([O-])c1ccc(N2CCN(c3ccccc3F)CC2)nc1"
  TARGET_DESC: "β-galactosidase in CMV-LacZ C2C12 myotubes"
  VALUE_MEASURED: 1.024
- MOLECULE: "N#Cc1ccccc1S(=O)(=O)N1CCN(C(=O)C2CCCCC2)CC1"
  TARGET_DESC: "β-galactosidase in CMV-LacZ C2C12 myotubes"
  VALUE_MEASURED: 0.8238
- MOLECULE: "Cc1cc(C(=O)Nc2cccc3ccccc23)c(C)o1"
  TARGET_DESC: "β-galactosidase in CMV-LacZ C2C12 myotubes"
  VALUE_MEASURED: 1.0075

Please look at the following molecule next.
Form field: reported CMV-LACZ in Myotubes, signal relative to DMSO of Cc1cccc(Sc2nc(-c3ccccc3)ccc2C#N)c1
0.8244

---

Tested on: β-galactosidase in CMV-LacZ C2C12 myotubes
METHOD: CMV-LacZ secondary screen in C2C12 myotubes (β-Gal stabilizing assay)
Assay type: cell-based, mouse
RECORDED_CONDITIONS: 10 uM; CMV-LacZ C2C12 myotubes; 96-well format
This listing pairs compounds with measured CMV-LACZ in Myotubes (β-galactosidase activity relative to DMSO).
Lab note: jot the number down without any unit.

- COMPOUND: "COCCN1C=C(C(=O)OC)C(c2ccccc2Cl)C(C(=O)OC)=C1 [MLS000718886-01]"
  TARGET_DESC: "β-galactosidase in CMV-LacZ C2C12 myotubes"
  VALUE_MEASURED: 0.9804
- COMPOUND: "O=C(Nc1ccc(N2CCN(C(=O)c3ccccc3F)CC2)cc1)c1cncc(Br)c1 [MLS001060533-01]"
  TARGET_DESC: "β-galactosidase in CMV-LacZ C2C12 myotubes"
  VALUE_MEASURED: 0.7789
- COMPOUND: "Cc1cc(NC(=O)CCC(=O)N(Cc2cccnc2)C(C(=O)NC(C)(C)C)c2ccccc2Cl)no1 (stereo not shown) [MLS001220803-01]"
  TARGET_DESC: "β-galactosidase in CMV-LacZ C2C12 myotubes"
  VALUE_MEASURED: 1.064
- COMPOUND: "Cc1nnc(NC(=O)CSc2nnc(CCNC(=O)c3ccccc3F)n2C)s1 [MLS001217045-01]"
  TARGET_DESC: "β-galactosidase in CMV-LacZ C2C12 myotubes"
  VALUE_MEASURED: 0.9821
- COMPOUND: "Cc1ccc(-c2onc3ccc(C(=O)/C=C/N(C)C)cc23)cc1 [MLS001166156-01]"
  TARGET_DESC: "β-galactosidase in CMV-LacZ C2C12 myotubes"
  VALUE_MEASURED: 0.9198

Form field: reported CMV-LACZ in Myotubes (β-galactosidase activity relative to DMSO) of CC(=O)Nc1ccc(NC(=O)[C@@H](NC(=O)c2cccc(C)c2)C(C)C)cc1 [MLS001176897-01]
0.797

Form field: reported CMV-LACZ in Myotubes (β-galactosidase activity relative to DMSO) of COCc1c(C(=O)OCc2nc3ccsc3c(=O)[nH]2)oc2ccccc12 [MLS002163386-01]
1.196

---

This listing pairs compounds with measured CMV-LACZ in Myoblasts (β-galactosidase activity relative to DMSO).
System: β-galactosidase in CMV-LacZ C2C12 myoblasts
METHOD: CMV-LacZ secondary screen in C2C12 myoblasts (β-Gal stabilizing assay)
Type: cell-based, mouse
RECORDED_CONDITIONS: 5 uM; CMV-LacZ C2C12 myoblasts
Lab note: jot the number down without any unit.

Examples from the recorded data:
- COMPOUND: "COc1ccc(Cl)cc1NC(=O)c1cc(-c2cc(C)ccc2O)n[nH]1"
  VALUE_MEASURED: 0.9637
- COMPOUND: "COc1cccc(CN2CCN(Cc3ccco3)CC2)c1.O=C(O)C(=O)O"
  VALUE_MEASURED: 0.9500

For the record Cl.O=C1C2CCCN2C(=O)N1CCCN1CCN(c2cccc(Br)c2)CC1 (stereo not drawn) , what value of CMV-LACZ in Myoblasts (β-galactosidase activity relative to DMSO) is listed for β-galactosidase in CMV-LacZ C2C12 myoblasts?
0.8251

---

Tested on: β-galactosidase in CMV-LacZ C2C12 myoblasts
METHOD: CMV-LacZ secondary screen in C2C12 myoblasts (β-Gal stabilizing assay)
Format: cell-based, mouse
RECORDED_CONDITIONS: 20 uM; CMV-LacZ C2C12 myoblasts
EXPERIMENTAL_ENDPOINT: CMV-LACZ in Myoblasts (β-galactosidase activity relative to DMSO)
Lab note: jot the number down without any unit.

Examples from the recorded data:
- COMPOUND: "CC(=O)Nc1ccc(NC(=O)c2cc(=O)c3cc(C)cc(C)c3o2)cc1"
  VALUE_MEASURED: 0.7252
- COMPOUND: "CN(/C(=N/S(=O)(=O)c1cccs1)c1ccccc1)c1ccccc1"
  VALUE_MEASURED: 0.7811
- COMPOUND: "Br.COc1ccc(C(=O)CN2CCCCC2)cc1"
  VALUE_MEASURED: 1.2930
- COMPOUND: "Cc1ccccc1NC(=O)NCCCN1CCN(C)CC1"
  VALUE_MEASURED: 0.9556
- COMPOUND: "NC(=O)c1sc2nc3c(cc2c1N)CCC3"
  VALUE_MEASURED: 0.8667
- COMPOUND: "CCOC(=O)c1cc(C(=O)OCC)c(=O)[nH]c1SCc1ccccc1"
  VALUE_MEASURED: 0.8730
- COMPOUND: "Cc1cccc(Sc2nc(-c3ccccc3)ccc2C#N)c1"
  VALUE_MEASURED: 1.0111
- COMPOUND: "CCC(CC)C(=O)Nc1c(C(=O)N2CCN(c3ccccc3)CC2)oc2ccccc12"
  VALUE_MEASURED: 1.0448
- COMPOUND: "CCOc1ccc(Br)cc1S(=O)(=O)Nc1ccc(C(=O)Nc2ccccc2OC)cc1"
  VALUE_MEASURED: 1.1523
- COMPOUND: "CCOc1ccccc1NC(=O)COC(=O)CNS(=O)(=O)c1ccc(C)cc1"
  VALUE_MEASURED: 1.0175

Form field: reported CMV-LACZ in Myoblasts (β-galactosidase activity relative to DMSO) of O=C(NCc1ccccc1)c1csc(-c2cccnc2)n1
0.6232

Form field: reported CMV-LACZ in Myoblasts (β-galactosidase activity relative to DMSO) of Nc1cccc(/C=C/C(=O)O)c1
1.3393

Form field: reported CMV-LACZ in Myoblasts (β-galactosidase activity relative to DMSO) of O=C(Nc1ccccc1Cl)C1CCCN1C(=O)OCc1ccccc1 (stereo not shown)
1.0307

Form field: reported CMV-LACZ in Myoblasts (β-galactosidase activity relative to DMSO) of COc1ccc(OC)c(S(=O)(=O)Nc2c(NC3CCCCC3)c3ccccc3oc2=O)c1
1.1400

Form field: reported CMV-LACZ in Myoblasts (β-galactosidase activity relative to DMSO) of COc1ccccc1CC(=O)Nc1cc(S(=O)(=O)N2CCOCC2)ccc1N1CCOCC1
0.8233

Form field: reported CMV-LACZ in Myoblasts (β-galactosidase activity relative to DMSO) of Cc1cc(OCC(=O)NC(C)C)ccc1Cl
0.5374
